Target protein (sequence): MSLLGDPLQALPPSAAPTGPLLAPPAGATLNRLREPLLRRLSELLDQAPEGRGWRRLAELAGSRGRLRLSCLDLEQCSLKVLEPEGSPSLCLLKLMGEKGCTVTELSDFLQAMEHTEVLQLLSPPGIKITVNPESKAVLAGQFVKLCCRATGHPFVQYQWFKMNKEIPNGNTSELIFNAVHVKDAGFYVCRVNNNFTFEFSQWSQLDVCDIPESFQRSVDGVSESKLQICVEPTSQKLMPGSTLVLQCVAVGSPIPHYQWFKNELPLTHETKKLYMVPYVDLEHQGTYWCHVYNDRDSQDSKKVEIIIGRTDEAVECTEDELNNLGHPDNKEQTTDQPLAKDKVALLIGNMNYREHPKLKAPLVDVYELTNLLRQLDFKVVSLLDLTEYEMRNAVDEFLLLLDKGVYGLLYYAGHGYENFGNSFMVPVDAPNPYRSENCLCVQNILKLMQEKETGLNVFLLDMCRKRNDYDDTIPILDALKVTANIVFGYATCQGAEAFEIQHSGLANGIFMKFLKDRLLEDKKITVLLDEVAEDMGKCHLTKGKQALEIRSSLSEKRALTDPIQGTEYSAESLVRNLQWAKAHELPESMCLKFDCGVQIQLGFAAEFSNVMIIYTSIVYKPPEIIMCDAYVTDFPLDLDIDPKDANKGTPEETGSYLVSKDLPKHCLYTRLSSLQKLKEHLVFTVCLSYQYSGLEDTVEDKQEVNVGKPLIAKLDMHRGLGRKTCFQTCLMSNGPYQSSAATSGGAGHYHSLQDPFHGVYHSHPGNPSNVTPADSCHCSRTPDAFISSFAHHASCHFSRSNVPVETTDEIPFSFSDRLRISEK
Readout: IC50

**Query** Quick check: IC50 of Cc1c(F)c(N)cc(C(=O)Nc2cc(-n3cc(C(=O)N4CCN(C)CC4)nn3)c(F)cc2N2C[C@@H](C)N(C)[C@@H](C)C2)c1Cl ?
**Result** > 1000 nM

* * *

# Protocol details: PK profile of HBI-2375 in plasma and brain in C57BL/6J mice
# Assay type: in vivo
# Condition set: female, C57BL/6J, mouse, brain, po, 80 mg/kg, mice, single PO 80 mg/kg, female; read-out: AUClast Ratio Brain/Plasma
Readout: Kp

**Query** Quick check: Kp of Cc1c(F)c(N)cc(C(=O)Nc2cc(-n3cc(C(=O)N4CCN(C)CC4)nn3)c(F)cc2N2C[C@@H](C)N(C)[C@@H](C)C2)c1Cl ?
**Result** 0.388

* * *

# Protocol details: PK profile of HBI-2375 in plasma and brain in C57BL/6J mice
# Type: in vivo
# Condition set: mouse; C57BL/6J mice, single PO 40 mg/kg, plasma, female
Readout: Tmax

**Query** Quick check: Tmax of Cc1c(F)c(N)cc(C(=O)Nc2cc(-n3cc(C(=O)N4CCN(C)CC4)nn3)c(F)cc2N2C[C@@H](C)N(C)[C@@H](C)C2)c1Cl ?
**Result** 30 min

* * *

# Protocol details: Mouse PK (oral)
# Format: in vivo, C57/B16 mice
# Condition set: C57/B16, plasma, 30 mg/kg, 30 mpk
Readout: AUC(0-t)
Report as: number unit

Below: 2 molecules and their reported AUC(0-t).
# Line notation, Result
records = [
    ("CCN(CC)C(=O)c1cn(-c2cc(NC(=O)c3cc(N)c(F)c(C)c3Cl)c(N3C[C@@H](C)N(C)[C@@H](C)C3)cc2F)nn1", "7.61 µM·h"),
    ("C[C@@H]1CN(c2ncc(-c3cc(Nc4ncnc(Cl)c4N)c(N4CCN(C)[C@@H](C)C4)cc3F)cn2)C[C@H](C)O1", "56 µM·h"),
]

**Query** Quick check: AUC(0-t) of C[C@H]1CN(c2cc(F)c(-c3cnc(N4CCOCC4)nc3)cc2Nc2ncnc(Cl)c2N)CCN1C ?
**Result** 37 µM·h

**Query** Quick check: AUC(0-t) of Cc1c(F)c(N)cc(C(=O)Nc2cc(-n3cc(C(=O)N4CCN(C)CC4)nn3)c(F)cc2N2C[C@@H](C)N(C)[C@@H](C)C2)c1Cl ?
**Result** 5.64 µM·h

* * *

# Protocol details: PK profile of HBI-2375 in plasma, brain and CSF in SD rats
# Assay type: in vivo
# Condition set: SD, brain; Single PO Rat 40 mg/kg; read-out: Mean Brain Concentration, Cmin = 24 h
Readout: concentration at 24 h (ng/g)
Please respond with the number in ng/g and leave the unit unwritten.

**Query** Quick check: concentration at 24 h of Cc1c(F)c(N)cc(C(=O)Nc2cc(-n3cc(C(=O)N4CCN(C)CC4)nn3)c(F)cc2N2C[C@@H](C)N(C)[C@@H](C)C2)c1Cl ?
**Result** 22.1

* * *

# Protocol details: PK profile of HBI-2375 in plasma and brain in C57BL/6J mice
# Type: in vivo
# Condition set: both sexes, mouse; C57BL/6J mice, single PO 40 mg/kg, plasma, mean
Readout: Cmax (ng/mL)
Please respond with the number in ng/mL and leave the unit unwritten.

**Query** Quick check: Cmax of Cc1c(F)c(N)cc(C(=O)Nc2cc(-n3cc(C(=O)N4CCN(C)CC4)nn3)c(F)cc2N2C[C@@H](C)N(C)[C@@H](C)C2)c1Cl ?
**Result** 1140

* * *

# Target system: HDAC6 (Homo sapiens)
# Sequence (Q9UBN7 1-1215): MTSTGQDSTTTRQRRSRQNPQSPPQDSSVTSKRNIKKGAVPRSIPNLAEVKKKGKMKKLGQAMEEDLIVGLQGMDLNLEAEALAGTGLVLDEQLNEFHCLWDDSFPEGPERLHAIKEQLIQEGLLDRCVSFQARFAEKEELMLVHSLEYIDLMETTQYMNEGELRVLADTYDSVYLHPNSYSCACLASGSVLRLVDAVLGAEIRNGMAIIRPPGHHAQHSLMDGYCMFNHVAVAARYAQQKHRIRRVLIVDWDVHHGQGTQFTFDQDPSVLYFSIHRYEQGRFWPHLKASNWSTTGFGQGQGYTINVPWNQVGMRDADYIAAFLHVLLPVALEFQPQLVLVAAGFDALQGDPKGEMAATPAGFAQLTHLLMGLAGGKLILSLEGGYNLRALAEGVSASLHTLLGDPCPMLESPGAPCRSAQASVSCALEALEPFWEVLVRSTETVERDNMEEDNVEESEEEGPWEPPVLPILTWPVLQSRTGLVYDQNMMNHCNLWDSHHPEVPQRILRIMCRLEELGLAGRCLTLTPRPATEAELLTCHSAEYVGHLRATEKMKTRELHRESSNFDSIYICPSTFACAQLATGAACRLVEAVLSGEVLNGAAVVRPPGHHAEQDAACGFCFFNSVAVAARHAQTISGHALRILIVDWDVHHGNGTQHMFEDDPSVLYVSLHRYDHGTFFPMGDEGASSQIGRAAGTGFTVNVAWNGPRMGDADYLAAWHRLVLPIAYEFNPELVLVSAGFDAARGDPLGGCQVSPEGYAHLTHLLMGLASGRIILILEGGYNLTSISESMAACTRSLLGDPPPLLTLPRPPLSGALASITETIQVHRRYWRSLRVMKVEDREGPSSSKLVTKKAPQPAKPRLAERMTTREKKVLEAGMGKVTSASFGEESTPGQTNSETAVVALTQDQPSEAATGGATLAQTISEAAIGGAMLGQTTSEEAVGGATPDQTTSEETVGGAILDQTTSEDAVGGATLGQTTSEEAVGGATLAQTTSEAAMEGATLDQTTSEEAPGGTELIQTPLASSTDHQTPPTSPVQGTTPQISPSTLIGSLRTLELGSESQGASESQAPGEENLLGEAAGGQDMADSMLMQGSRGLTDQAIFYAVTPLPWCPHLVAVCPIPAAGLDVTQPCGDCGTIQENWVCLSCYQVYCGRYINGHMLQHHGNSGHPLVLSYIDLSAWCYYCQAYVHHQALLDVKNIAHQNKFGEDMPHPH
Readout: IC50

**Query** Quick check: IC50 of Cc1c(F)c(N)cc(C(=O)Nc2cc(-n3cc(C(=O)N4CCN(C)CC4)nn3)c(F)cc2N2C[C@@H](C)N(C)[C@@H](C)C2)c1Cl ?
**Result** > 1 µM

* * *

# Protocol details: Compound formulation stability assay
# Assay type: physicochemical
# Condition set: 10 mg/mL in 10% DMSO/10% solutol HS 15/80% water, 2-8° C., Day 0
# Accuracy % (Day 0) values compiled below
Please respond with the number in % and leave the unit unwritten.

Below: 3 molecules and their reported Accuracy % (Day 0).
# Line notation, Accuracy % (Day 0) / %
rows = [
    ("C[C@H]1CN(c2cc(F)c(-c3cnc(N4CCOCC4)nc3)cc2Nc2ncnc(Cl)c2N)CCN1C", 89.8),
    ("CCN(CC)C(=O)c1cn(-c2cc(NC(=O)c3cc(N)c(F)c(C)c3Cl)c(N3C[C@@H](C)N(C)[C@@H](C)C3)cc2F)nn1", 96.3),
    ("C[C@@H]1CN(c2ncc(-c3cc(Nc4ncnc(Cl)c4N)c(N4CCN(C)[C@@H](C)C4)cc3F)cn2)C[C@H](C)O1", 89.9),
]

Now consider the entry below.
**Query** Quick check: Accuracy % (Day 0) of Cc1c(F)c(N)cc(C(=O)Nc2cc(-n3cc(C(=O)N4CCN(C)CC4)nn3)c(F)cc2N2C[C@@H](C)N(C)[C@@H](C)C2)c1Cl ?
**Result** 92.8

Each recorded value in this set is attributed to patent US20230293539A1.
